- experimental system: FGFR3 (Homo sapiens (Human), UniProt P22607)
- Sequence (P22607 23-806): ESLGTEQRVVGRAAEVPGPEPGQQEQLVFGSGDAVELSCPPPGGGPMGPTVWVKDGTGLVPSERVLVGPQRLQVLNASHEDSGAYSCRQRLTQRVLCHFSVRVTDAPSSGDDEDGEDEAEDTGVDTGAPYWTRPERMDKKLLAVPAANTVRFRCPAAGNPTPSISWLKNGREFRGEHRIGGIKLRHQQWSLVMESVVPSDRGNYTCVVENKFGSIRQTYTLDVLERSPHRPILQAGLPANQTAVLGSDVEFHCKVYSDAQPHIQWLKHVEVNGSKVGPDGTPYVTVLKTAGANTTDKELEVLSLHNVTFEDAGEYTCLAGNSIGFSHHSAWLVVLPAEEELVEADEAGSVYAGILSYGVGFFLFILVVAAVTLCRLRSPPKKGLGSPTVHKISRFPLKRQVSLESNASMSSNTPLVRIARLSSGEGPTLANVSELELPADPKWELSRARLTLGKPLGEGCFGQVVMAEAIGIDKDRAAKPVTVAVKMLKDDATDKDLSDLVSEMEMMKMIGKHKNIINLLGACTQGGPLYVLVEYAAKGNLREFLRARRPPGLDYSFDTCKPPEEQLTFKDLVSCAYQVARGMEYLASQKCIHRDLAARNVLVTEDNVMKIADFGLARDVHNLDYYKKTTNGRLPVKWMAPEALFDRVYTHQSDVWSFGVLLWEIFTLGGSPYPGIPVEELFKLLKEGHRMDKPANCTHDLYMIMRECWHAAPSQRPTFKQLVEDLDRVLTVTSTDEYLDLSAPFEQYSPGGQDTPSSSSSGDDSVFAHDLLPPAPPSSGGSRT
- test method notes: FGFR Enzymatic Assay (FRET peptide phosphorylation), FGFR3
pIC50: −log10 of the molar value.
Kindly supply the reported pIC50 values for the records listed here.

Query :: Entry C=CC(=O)Nc1ccc(N2CCOCC2)cc1Nc1cc2c(cn1)CN(c1c(F)c(OC)cc(OC)c1F)C(=O)C21CC1 [Example 10] , system FGFR3 (Homo sapiens (Human), UniProt P22607): what pIC50 was measured?
Result :: 6.70 to 7.52

Query :: Entry C=CC(=O)NC1COCC1Nc1cc2c(cn1)CN(c1c(F)c(OC)cc(OC)c1F)C(=O)C21CC1 (racemic) [Example 4] , system FGFR3 (Homo sapiens (Human), UniProt P22607): what pIC50 was measured?
Result :: < 6.70

Query :: Entry C=CC(=O)Nc1ccccc1Nc1cc2c(cn1)CN(c1c(F)c(OC)cc(OC)c1F)C(=O)C21CC1 [Example 1] , system FGFR3 (Homo sapiens (Human), UniProt P22607): what pIC50 was measured?
Result :: 6.70 to 7.52

Query :: Entry C=CC(=O)NC1CCCCC1Nc1cc2c(cn1)CN(c1c(F)c(OC)cc(OC)c1F)C(=O)C21CC1 (racemic) [Example 3] , system FGFR3 (Homo sapiens (Human), UniProt P22607): what pIC50 was measured?
Result :: < 6.70

Query :: Entry C=CC(=O)N(C)c1cc2c(cn1)CN(c1c(F)c(OC)cc(OC)c1F)C(=O)C21CC1 [Example 2] , system FGFR3 (Homo sapiens (Human), UniProt P22607): what pIC50 was measured?
Result :: 6.70 to 7.52
